- MEASURED ON: TLR2 (Mus musculus)
- Construct: endogenous in cells
- Sequence (Q9QUN7 25-784): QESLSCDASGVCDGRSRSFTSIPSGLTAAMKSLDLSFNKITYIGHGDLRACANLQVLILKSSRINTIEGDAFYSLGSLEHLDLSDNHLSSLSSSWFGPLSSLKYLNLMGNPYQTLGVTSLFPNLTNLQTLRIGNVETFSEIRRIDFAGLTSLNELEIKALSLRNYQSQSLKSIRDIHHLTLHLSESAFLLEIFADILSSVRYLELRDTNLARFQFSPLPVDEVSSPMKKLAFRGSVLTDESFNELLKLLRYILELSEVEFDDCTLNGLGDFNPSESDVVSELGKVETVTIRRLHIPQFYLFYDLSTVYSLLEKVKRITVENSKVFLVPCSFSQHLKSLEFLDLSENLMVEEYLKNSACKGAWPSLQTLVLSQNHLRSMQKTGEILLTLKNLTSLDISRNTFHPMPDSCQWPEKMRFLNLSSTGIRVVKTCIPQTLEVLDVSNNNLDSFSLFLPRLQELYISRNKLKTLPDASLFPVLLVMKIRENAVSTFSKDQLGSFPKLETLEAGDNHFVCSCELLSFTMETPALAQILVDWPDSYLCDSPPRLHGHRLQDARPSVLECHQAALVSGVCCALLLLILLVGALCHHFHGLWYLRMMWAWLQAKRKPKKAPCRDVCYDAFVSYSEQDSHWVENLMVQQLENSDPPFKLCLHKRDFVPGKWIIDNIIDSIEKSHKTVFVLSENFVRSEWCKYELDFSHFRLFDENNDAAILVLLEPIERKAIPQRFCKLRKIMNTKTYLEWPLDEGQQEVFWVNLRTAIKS
- TEST: TLR2 functional assay, cytokine release from RAW 264.7 mouse macrophage cell line
- RUN PARAMETERS: average of all runs
- Procedure: Cells of the immune system respond to TLR agonists in part by secreting cytokines. Functional assays for TLR2 agonists measure cytokine release from purified immune cells or immortalized cell lines derived from immune cells. Cytokine release is measured by standard ELISA approaches or multiplexed analysis using the Meso Scale Discovery (MSD) platform. […]
Recorded measurements of EC50, one per entry

{"COMPOUND": "CCCCCCCCCC(=O)N[C@@H](Cn1cc(-c2ccc(C(=O)N3C[C@@H](C(=O)N[C@H]4C[C@@H]4c4ccccc4)[C@H](C(=O)N[C@H]4C[C@@H]4c4ccccc4)C3)cc2)nn1)C(=O)NCCCCCC [Compound 213]", "EC50": "51 to 350 nM"}

# input Please report the measured EC50 for CCCCCCCCCCCCCNC(=O)N[C@H]1CN(C(=O)c2ccc(C(=O)N3C[C@@H](C(=O)N[C@H]4C[C@@H]4c4ccccc4)[C@H](C(=O)N[C@H]4C[C@@H]4c4ccccc4)C3)cc2)C[C@H]1OC [Compound 210]
# output > 1000 nM

----------
A collection of molecules and their measured EC50
- MEASURED ON: TLR2 (Homo sapiens)
- Sequence (O60603 21-784): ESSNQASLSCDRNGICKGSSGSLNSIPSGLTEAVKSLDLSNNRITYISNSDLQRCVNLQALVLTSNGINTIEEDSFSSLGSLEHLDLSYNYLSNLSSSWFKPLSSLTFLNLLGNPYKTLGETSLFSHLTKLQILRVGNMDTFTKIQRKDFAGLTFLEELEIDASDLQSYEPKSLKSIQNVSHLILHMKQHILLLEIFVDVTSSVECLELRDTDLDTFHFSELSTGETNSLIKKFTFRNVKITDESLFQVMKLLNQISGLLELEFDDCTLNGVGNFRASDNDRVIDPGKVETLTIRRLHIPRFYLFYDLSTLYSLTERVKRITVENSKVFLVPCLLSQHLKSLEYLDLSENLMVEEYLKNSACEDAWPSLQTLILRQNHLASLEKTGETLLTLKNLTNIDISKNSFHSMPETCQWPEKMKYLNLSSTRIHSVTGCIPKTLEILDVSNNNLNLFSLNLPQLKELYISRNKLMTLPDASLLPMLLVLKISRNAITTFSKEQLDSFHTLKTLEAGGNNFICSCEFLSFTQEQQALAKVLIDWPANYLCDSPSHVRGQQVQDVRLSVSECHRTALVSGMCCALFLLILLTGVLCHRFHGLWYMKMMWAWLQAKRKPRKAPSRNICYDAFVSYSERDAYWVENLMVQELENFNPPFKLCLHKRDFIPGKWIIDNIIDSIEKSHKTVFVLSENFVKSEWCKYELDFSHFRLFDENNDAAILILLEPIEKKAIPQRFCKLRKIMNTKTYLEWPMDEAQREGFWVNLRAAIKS
- TEST: TLR2 agonist screening assay, HEK-Blue TLR2 reporter cell line (NF-kB-driven SEAP, absorbance at 600 nm)
- Format: cell-based
- Parameters: host or cells: HEK-293 (HEK-Blue TLR2 reporter cell line)
- RUN PARAMETERS: HEK-Blue TLR2 reporter cells, agonist mode; average of all runs (Table 4)
- Excerpt: TLRs are a class of cell-surface receptors expressed on many different cell types that recognize conserved structural motifs present on pathogen-derived molecules. TLR2 recognizes bacteria-derived lipopeptides. […] The in vitro TLR2 assay consists of a cell line that responds to TLR2 engagement by producing a factor that elicits a color change in the culture media and can be readily measured by various colorimetric detection methods. […]

# input Give recorded EC50. CCCCCCCCCCCCCCNC(=O)[C@H]1CN(Cc2ccc(C(=O)N3C[C@@H](C(=O)N[C@H]4C[C@@H]4c4ccccc4)[C@H](C(=O)N[C@H]4C[C@@H]4c4ccccc4)C3)cc2)CCN1C [Compound 084]
# output > 1000 nM

# input Tell me EC50 reported for CCCCCCCCCCCCCNC(=O)N[C@H]1CN(c2nnc(-c3ccc(C(=O)N4C[C@@H](C(=O)N[C@H]5C[C@@H]5c5ccccc5)[C@H](C(=O)N[C@H]5C[C@@H]5c5ccccc5)C4)cc3)o2)C[C@@H]1OC [Compound 260]
# output 0.1 to 50 nM

# input State its EC50 for this molecule: CCCCCCCCCCCNC(=O)N[C@H]1CN(C(c2ccc(C(=O)N3C[C@@H](C(=O)N[C@H]4C[C@@H]4c4ccccc4)[C@H](C(=O)N[C@H]4C[C@@H]4c4ccccc4)C3)cc2)C(F)(F)F)C[C@@H]1OC (single isomer, unassigned) [Compound 230]
# output 0.1 to 50 nM

# input // Input: CCCCCCCCC(=O)N[C@@H](Cn1cc(-c2ccc(C(=O)N3C[C@@H](C(=O)N[C@H]4C[C@@H]4c4ccccc4)[C@H](C(=O)N[C@H]4C[C@@H]4c4ccccc4)C3)cc2)nn1)C(=O)NCCCCCC [Compound 212] . Output its EC50 only.
# output 0.1 to 50 nM

# input Read the entry CCCCCCCCCCCCCCNC(=O)[C@@H]1CN(Cc2ccc(C(=O)N3C[C@@H](C(=O)N[C@H]4C[C@@H]4c4ccccc4)[C@H](C(=O)N[C@H]4C[C@@H]4c4ccccc4)C3)cc2)C(=O)CN1C [Compound 093] and write its reported EC50.
# output 51 to 350 nM

# input Retrieve EC50 measured for CCCCCCCCCC(=O)N[C@@H](Cc1nnc(-c2ccc(C(=O)N3C[C@@H](C(=O)N[C@H]4C[C@@H]4c4ccccc4)[C@H](C(=O)N[C@H]4C[C@@H]4c4ccccc4)C3)cc2)o1)C(=O)NCCCCCC [Compound 259] and print it.
# output 351 to 1000 nM

# input Find the measured EC50 of CCCCCCCCCCCCCCC(=O)N[C@H]1CN(C(=O)c2ccc(C(=O)N3C[C@@H](C(=O)N[C@H]4C[C@@H]4c4ccccc4)[C@H](C(=O)N[C@H]4C[C@@H]4c4ccccc4)C3)cc2)C[C@@H]1OC [Compound 101] and report it.
# output 0.1 to 50 nM

# input For the molecule O=C(N[C@H]1C[C@@H]1c1ccccc1)[C@@H]1CN(C(=O)C23CCC(C(=O)N4C[C@@H](C(=O)N[C@H]5C[C@@H]5c5ccccc5)[C@H](C(=O)N[C@H]5C[C@@H]5c5ccccc5)C4)(CC2)C3)C[C@H]1C(=O)N[C@H]1C[C@@H]1c1ccccc1 [Compound 081] , give its reported EC50.
# output 351 to 1000 nM

# input Using the record for CCCCCCCCCCCCCNC(=O)N[C@H]1CN(c2ncc(-c3ccc(C(=O)N4C[C@@H](C(=O)N[C@H]5C[C@@H]5c5ccccc5)[C@H](C(=O)N[C@H]5C[C@@H]5c5ccccc5)C4)cc3)o2)C[C@@H]1OC [Compound 234] , state its measured EC50.
# output > 1000 nM

# input Specify measured EC50 for CCCCCCCCCCCCCCC(=O)N[C@H]1CCN(Cc2ccc(C(=O)N3C[C@@H](C(=O)N[C@H]4C[C@@H]4c4ccccc4)[C@H](C(=O)N[C@H]4C[C@@H]4c4ccccc4)C3)cc2)C1=O [Compound 133] .
# output > 1000 nM

# input Look up and report measured EC50 for this entry: CCCCCCCCCCCCCCNC(=O)[C@@H]1CN(C(=O)c2ccc(C(=O)N3C[C@@H](C(=O)N[C@H]4C[C@@H]4c4ccccc4)[C@H](C(=O)N[C@H]4C[C@@H]4c4ccccc4)C3)cc2)C[C@H]1N(C)[C@H](C)c1ccccc1 [Compound 090]
# output > 1000 nM
